- Test system: U2OS
- ASSAY INFO: Multiplex assay against U2OS
- Format: toxicity, cell-based
- TEST SETTINGS: human, 48 h, 10 µM, compound concentration 10 uM, replicate 1
Exercise: for every item that follows, state its recorded Population Healthy Nuclei (%).
Express the result in % but write the number alone.

Query string: For the molecule `O=C(O)c1ccc2cc(-c3ccc(O)c(C45CC6CC(CC(C6)C4)C5)c3)ccc2c1` , report Population Healthy Nuclei (%).
Result string: 47

Query string: Return value of Population Healthy Nuclei (%) for input CCC(=O)O[C@]1(C(=O)SCF)[C@H](C)C[C@H]2[C@@H]3C[C@H](F)C4=CC(=O)C=C[C@]4(C)[C@@]3(F)[C@@H](O)C[C@@]21C [FLUTICASONE PROPIONATE] , no commentary.
Result string: 67

Query string: Assign Population Healthy Nuclei (%) to the following record: `CC(=O)c1cc(-c2cc(C(=O)NC3CC3)ccc2C)c2ncccn12`
Result string: 60

Query string: Answer with the recorded Population Healthy Nuclei (%) for the molecule listed here: `CCCn1c(=O)c2[nH]c(C34CC5CC(CC3C5)C4)nc2n(CCC)c1=O`
Result string: 43

Query string: Name the recorded Population Healthy Nuclei (%) of the item `CC(C)N1CCC(C)(C)c2cc(C#Cc3ccc(C(=O)O)cc3)ccc21` in your answer.
Result string: 57

Query string: State its Population Healthy Nuclei (%): `Nc1ccc(C(=O)Nc2cccc(-c3nc(N4CCOCC4)c4oc5ncccc5c4n3)c2)cn1`
Result string: 5

Query string: Tell me measured Population Healthy Nuclei (%) for `Cl.Cl.Nc1ncnc2c1c(-c1cccc(OCc3ccccc3)c1)cn2[C@H]1C[C@@H](CN2CCC2)C1` please.
Result string: 7

Query string: Read the entry `C1=N/C2=N/c3ccc(OCCN4CCCC4)c(c3)COC/C=C\COCc3cccc(c3)C(=C1)N2` and write its reported Population Healthy Nuclei (%).
Result string: 1

Query string: Using the record for `COc1cc2c(NC3CCN(C(C)C)CC3)nc(N3CCC(F)(F)CC3)nc2cc1OCCCN1CCCC1` , state its measured Population Healthy Nuclei (%).
Result string: 44
